I'd be grateful if you could share measured %Inh for these entries.
Test system: AKT3;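 also: KINOMEscan kinase panel screen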
Condition parameters: concentration: 1 μM, replicates: in singlicate; n = 1
Give bare numbers, in %.

// solved cases for %Inh follow
COc1cc2ncn(-c3cc(OCc4ccncc4)c(C(N)=O)s3)c2cc1OC [GSK336313] ... 0
CC(C)(C)c1ccc(C(=O)Nc2cn3cc(-c4ccccc4)ccc3n2)cc1 ... 0
Cc1ccc(Oc2ccc(Nc3ncnc4cc[nH]c34)cc2C)cn1 ... 0

Consider the following items and state reported %Inh for each.
1. COc1cc2ncn(-c3cc(OCCCc4ccccc4)c(C(N)=O)s3)c2cc1OC [GSK205189]
2. Cc1ccccc1COc1cc(-n2cnc3cc(Cl)ccc32)sc1C(N)=O [GW813349]

Result:
1. 0
2. 6
